Target: T1, Recombinant human extracellular domain of IL13RA2-6His (27-343) (human, UniProt Q14627 27-343)
T1 construct: also called Human IL13RA2-6His; human IL13Rα2
T1 sequence: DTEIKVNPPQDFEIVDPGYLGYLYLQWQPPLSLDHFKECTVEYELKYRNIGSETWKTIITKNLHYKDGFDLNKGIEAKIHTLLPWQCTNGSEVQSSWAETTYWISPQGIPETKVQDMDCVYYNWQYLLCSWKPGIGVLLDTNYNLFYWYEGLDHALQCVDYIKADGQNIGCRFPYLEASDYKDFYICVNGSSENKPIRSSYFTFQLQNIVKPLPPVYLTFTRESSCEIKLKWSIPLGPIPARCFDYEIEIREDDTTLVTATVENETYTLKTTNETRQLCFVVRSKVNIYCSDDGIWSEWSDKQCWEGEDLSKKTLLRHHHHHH
Assay: Biacore (SPR), IL13RA2-6His on the sensor, bivalent antibody in solution
Measured parameter: kon (M⁻¹ s⁻¹)

1) Clone 47 VHA / Clone 47 VKA2 (antibody, V domains shown, Expressed as IgG in Expi293 cells; also called VHA/VKA2) VH: QVQLVQSGAEVKKPGASVKVSCKASGYTFSNYLMNWVRQAPGQGLEWMGRIDPYDGDIDYNQNFKDRVTITRDTSASTAYMELSSLRSEDTAVYYCARGYGTAYGVDYWGQGTSVTVSS VL: EIVLTQSPATLSLSPGERATLSCRASESVDNYGISFMNWYQQKPGQAPRLLIYAASRQGSGIPDRFSGSGSGTDFTLTISRLEPEDFAVYFCQQSKEVPWTFGGGTKLEIK : 131000
2) Clone 47 VHA / Clone 47 VKA (HuCL47) (antibody, V domains shown, Expressed as IgG in Expi293 cells; also called VHA/VKA; VHANKA) VH: QVQLVQSGAEVKKPGASVKVSCKASGYTFSNYLMNWVRQAPGQGLEWMGRIDPYDGDIDYNQNFKDRVTITRDTSASTAYMELSSLRSEDTAVYYCARGYGTAYGVDYWGQGTSVTVSS VL: EIVLTQSPATLSLSPGERATLSCRASESVDNYGISFMNWYQQKPGQAPRLLIYAASRQGSGIPDRFSGSGSGTDFTLTISRLEPEDFAVYYCQQSKEVPWTFGGGTKLEIK : 112000
3) Clone 47 VHA / Clone 47 VKA1 (antibody, V domains shown, Expressed as IgG in Expi293 cells; also called VHA/VKA1) VH: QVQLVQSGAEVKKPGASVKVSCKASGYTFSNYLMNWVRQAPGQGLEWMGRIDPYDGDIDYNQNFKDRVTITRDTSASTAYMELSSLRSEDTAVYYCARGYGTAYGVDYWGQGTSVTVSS VL: EIVLTQSPATLSLSPGERATLSCRASESVDNYGISFMNWFQQKPGQAPRLLIYAASRQGSGIPDRFSGSGSGTDFTLTISRLEPEDFAVYYCQQSKEVPWTFGGGTKLEIK : 124000
4) Clone 47 VHAback / Clone 47 VKA (antibody, V domains shown, Expressed as IgG in Expi293 cells; also called VHAback/VKA) VH: QVQLVQSGAEVKKPGASVKVSCKASGYTFSNYLMNWVRQAPGQGLEWIGRIDPYDGDIDYNQNFKDRATLTVDKSASTAYMELSSLRSEDTAVYYCARGYGTAYGVDYWGQGTSVTVSS VL: EIVLTQSPATLSLSPGERATLSCRASESVDNYGISFMNWYQQKPGQAPRLLIYAASRQGSGIPDRFSGSGSGTDFTLTISRLEPEDFAVYYCQQSKEVPWTFGGGTKLEIK : 115000
